- target entity: purified human TOP1 (Homo sapiens, UniProt P11387)
- Construct: purchased TopoGEN, Inc. (Columbus, Ohio)
- Sequence (P11387 1-765): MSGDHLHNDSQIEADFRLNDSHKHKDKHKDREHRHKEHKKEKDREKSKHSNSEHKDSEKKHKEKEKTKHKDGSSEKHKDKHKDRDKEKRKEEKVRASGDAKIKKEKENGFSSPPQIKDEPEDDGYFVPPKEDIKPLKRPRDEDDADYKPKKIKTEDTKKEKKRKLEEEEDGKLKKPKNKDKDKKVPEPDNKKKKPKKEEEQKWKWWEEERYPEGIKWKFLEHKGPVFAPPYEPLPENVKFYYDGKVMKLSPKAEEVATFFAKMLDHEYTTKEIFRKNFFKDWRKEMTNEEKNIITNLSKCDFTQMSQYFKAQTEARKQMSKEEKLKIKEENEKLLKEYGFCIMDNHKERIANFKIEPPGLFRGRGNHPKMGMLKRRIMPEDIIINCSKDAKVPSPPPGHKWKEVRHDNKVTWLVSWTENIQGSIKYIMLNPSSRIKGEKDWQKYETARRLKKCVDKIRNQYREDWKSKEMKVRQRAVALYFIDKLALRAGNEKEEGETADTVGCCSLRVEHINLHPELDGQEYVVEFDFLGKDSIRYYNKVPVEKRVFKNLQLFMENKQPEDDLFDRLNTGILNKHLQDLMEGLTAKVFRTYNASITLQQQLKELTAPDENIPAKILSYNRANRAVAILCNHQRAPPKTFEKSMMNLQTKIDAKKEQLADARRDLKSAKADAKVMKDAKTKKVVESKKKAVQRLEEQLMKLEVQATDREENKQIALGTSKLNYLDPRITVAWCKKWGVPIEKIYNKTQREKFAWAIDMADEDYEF
- protocol: In vitro drug-stimulated TOP1 cleavage assay (pHOT1 plasmid nicking)
- Format: biochemical
- Design: key: +++: high activity; ++: modest activity; +: low activity
- test conditions: in vitro; based on FIG. 4B and 4C
attribute measured: TOP1-mediated DNA cleavage

Please review the entries below; each comes with its answer.
So what's the measured TOP1-mediated DNA cleavage for this one? COC1C(CO)OC(n2c3ccccc3c3c4c(c5c6ccccc6[nH]c5c32)C(=O)N(C)C4=O)C(O)C1O (stereo not drawn)
++

Now consider COC1C(CO)OC(n2c3ccccc3c3c4c(c5c6ccccc6[nH]c5c32)C(=O)OC4=O)C(O)C1O (stereo not drawn) .
+

Now consider COC1C(CO)OC(n2c3c(Cl)cccc3c3c4c(c5c6cccc(Cl)c6[nH]c5c32)C(=O)N(C)C4=O)C(O)C1O (stereo not drawn) .
+

Now consider COC1C(CO)OC(n2c3ccccc3c3c4c(c5c6ccccc6[nH]c5c32)C(=O)N(O)C4=O)C(O)C1O (stereo not drawn) .
+++

Now consider COC1C(CO)OC(n2c3ccccc3c3c4c(c5c6ccccc6[nH]c5c32)C(=O)NC4=O)C(O)C1O (stereo not drawn) .
+++

// next entry
So what's the measured TOP1-mediated DNA cleavage for this one? `CO[C@H]1[C@H](O)[C@@H](O)[C@H](n2c3c(Cl)cccc3c3c4c(c5c6cccc(Cl)c6[nH]c5c32)C(=O)NC4=O)O[C@@H]1CO`
+

* * *

- Tested on: human breast cancer MCF-7 cells
- protocol: Clonogenic survival assay with radiation (radiosensitization) in MCF-7 cells
- Type: cell-based
- test conditions: pre-treated 2 μg/ml 1 h, rinsed, then radiation
attribute measured: RT dose (Gy) at 10% survival
Write down the numeric answer in Gy and omit the unit.

So what's the measured RT dose (Gy) at 10% survival for this one? `CO[C@H]1[C@H](O)[C@@H](O)[C@H](n2c3c(Cl)cccc3c3c4c(c5c6cccc(Cl)c6[nH]c5c32)C(=O)NC4=O)O[C@@H]1CO`
3.8

Now consider COC1C(CO)OC(n2c3ccccc3c3c4c(c5c6ccccc6[nH]c5c32)C(=O)N(O)C4=O)C(O)C1O (stereo not drawn) .
4.2

Now consider COC1C(CO)OC(n2c3ccccc3c3c4c(c5c6ccccc6[nH]c5c32)C(=O)N(C)C4=O)C(O)C1O (stereo not drawn) .
6.9

Now consider COC1C(CO)OC(n2c3ccccc3c3c4c(c5c6ccccc6[nH]c5c32)C(=O)NC4=O)C(O)C1O (stereo not drawn) .
7.2

Now consider COC1C(CO)OC(n2c3c(Cl)cccc3c3c4c(c5c6cccc(Cl)c6[nH]c5c32)C(=O)N(C)C4=O)C(O)C1O (stereo not drawn) .
7.0

Now consider COC1C(CO)OC(n2c3ccccc3c3c4c(c5c6ccccc6[nH]c5c32)C(=O)OC4=O)C(O)C1O (stereo not drawn) .
4.2

* * *

- Test system: human breast cancer MCF-7 cells
- protocol: Clonogenic survival assay with radiation (radiosensitization) in MCF-7 cells
- Format: cell-based
- test conditions: 2 μg/ml 1 h before radiation, at 10% survival
attribute measured: ER (SER per footnote c, sensitization enhancement ratio)

So what's the measured ER (SER per footnote c, sensitization enhancement ratio) for this one? `CO[C@H]1[C@H](O)[C@@H](O)[C@H](n2c3c(Cl)cccc3c3c4c(c5c6cccc(Cl)c6[nH]c5c32)C(=O)NC4=O)O[C@@H]1CO`
1.9

Now consider COC1C(CO)OC(n2c3ccccc3c3c4c(c5c6ccccc6[nH]c5c32)C(=O)N(O)C4=O)C(O)C1O (stereo not drawn) .
1.7

Now consider COC1C(CO)OC(n2c3ccccc3c3c4c(c5c6ccccc6[nH]c5c32)C(=O)NC4=O)C(O)C1O (stereo not drawn) .
1.0

Now consider COC1C(CO)OC(n2c3ccccc3c3c4c(c5c6ccccc6[nH]c5c32)C(=O)OC4=O)C(O)C1O (stereo not drawn) .
1.7

Now consider COC1C(CO)OC(n2c3c(Cl)cccc3c3c4c(c5c6cccc(Cl)c6[nH]c5c32)C(=O)N(C)C4=O)C(O)C1O (stereo not drawn) .
1.0

Now consider COC1C(CO)OC(n2c3ccccc3c3c4c(c5c6ccccc6[nH]c5c32)C(=O)N(C)C4=O)C(O)C1O (stereo not drawn) .
1.0

* * *

- target entity: covalent topoisomerase-DNA cross-links in CHO cells (Cricetulus griseus, UniProt Q07050, S505G)
- Construct: endogenous in cells; host or cells: Chinese hamster ovary CHO cells
- Sequence (Q07050 2-767 S505G): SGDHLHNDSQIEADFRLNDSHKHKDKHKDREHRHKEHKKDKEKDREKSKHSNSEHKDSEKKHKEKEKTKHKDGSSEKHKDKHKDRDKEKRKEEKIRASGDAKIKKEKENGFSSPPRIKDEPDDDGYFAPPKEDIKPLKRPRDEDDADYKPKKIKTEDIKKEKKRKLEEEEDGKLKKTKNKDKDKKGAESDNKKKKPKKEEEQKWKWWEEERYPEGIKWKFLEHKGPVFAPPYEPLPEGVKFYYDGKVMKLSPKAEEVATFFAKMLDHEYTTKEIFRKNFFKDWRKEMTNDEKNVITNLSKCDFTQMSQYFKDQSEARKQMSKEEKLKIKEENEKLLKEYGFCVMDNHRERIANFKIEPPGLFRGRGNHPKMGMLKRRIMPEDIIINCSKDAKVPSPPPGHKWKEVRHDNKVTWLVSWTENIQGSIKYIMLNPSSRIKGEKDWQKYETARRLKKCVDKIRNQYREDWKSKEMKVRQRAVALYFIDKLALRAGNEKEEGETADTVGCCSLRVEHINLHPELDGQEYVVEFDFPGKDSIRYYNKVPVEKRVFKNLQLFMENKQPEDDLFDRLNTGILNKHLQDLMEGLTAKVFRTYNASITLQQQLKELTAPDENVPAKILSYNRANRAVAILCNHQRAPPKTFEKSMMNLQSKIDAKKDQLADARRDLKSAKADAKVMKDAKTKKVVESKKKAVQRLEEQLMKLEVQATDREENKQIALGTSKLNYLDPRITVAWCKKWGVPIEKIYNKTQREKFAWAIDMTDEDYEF
- protocol: In vivo K+-SDS co-precipitation assay for protein-DNA cross-links
- Format: cell-based, Chinese hamster
- Parameters: key: +++: high activity; ++: modest activity; +: low activity
- test conditions: 30-min drug treatment, based on FIG. 5
attribute measured: Protein-DNA cross-links

Please review the entries below; each comes with its answer.
So what's the measured Protein-DNA cross-links for this one? COC1C(CO)OC(n2c3ccccc3c3c4c(c5c6ccccc6[nH]c5c32)C(=O)N(C)C4=O)C(O)C1O (stereo not drawn) [F44]
++

Now consider CO[C@H]1[C@H](O)[C@@H](O)[C@H](n2c3c(Cl)cccc3c3c4c(c5c6cccc(Cl)c6[nH]c5c32)C(=O)NC4=O)O[C@@H]1CO [F1, rebeccamycin] .
++

Now consider COC1C(CO)OC(n2c3c(Cl)cccc3c3c4c(c5c6cccc(Cl)c6[nH]c5c32)C(=O)N(C)C4=O)C(O)C1O (stereo not drawn) [F43] .
+

Now consider COC1C(CO)OC(n2c3ccccc3c3c4c(c5c6ccccc6[nH]c5c32)C(=O)OC4=O)C(O)C1O (stereo not drawn) [F5] .
+

Now consider COC1C(CO)OC(n2c3ccccc3c3c4c(c5c6ccccc6[nH]c5c32)C(=O)N(O)C4=O)C(O)C1O (stereo not drawn) [F7] .
++

// next entry
So what's the measured Protein-DNA cross-links for this one? COC1C(CO)OC(n2c3ccccc3c3c4c(c5c6ccccc6[nH]c5c32)C(=O)NC4=O)C(O)C1O (stereo not drawn) [F71]
+++
